- procedureDetails: chemical genetic growth profiling, strain panel (AID 1159580);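 note: tested at 20 µM; growth read once vehicle control cultures reached saturation at 30 °C; 1 = growth at the plate median or of vehicle wells; lower values mean less growth of the strain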
- conditionLabel: S. cerevisiae deletion strains, growth OD, locus YGR078C, strain PAC10
Screen size: about 5,500 compounds; about 2,000 (36%) were called active. Roughly 18% stayed inconclusive and do not appear here. Cut-off read from the data, not from the text of the source: active = normalized growth mostly below about 0.91 (no sharp cut-off); inconclusive = no clear call, values can overlap the other calls; inactive = mostly above about 0.92. The list shows a part of the results.
Possible outcomes: 1 = active, 0 = inactive

{"compound": "CC1(C)CCC2=C(O1)c1ccccc1C(=O)C2=O", "answerLabel": 0}
{"compound": "C[C@H](Cc1ccc(O)c(O)c1)[C@@H](C)Cc1ccc(O)c(O)c1", "answerLabel": 0}
{"compound": "O=C(NCCSCc1ccco1)c1ccc(Cl)cc1", "answerLabel": 0}
{"compound": "COc1[nH]c2ccc(F)cc2c1C(=O)OCC1CCN(CCNS(C)(=O)=O)CC1", "answerLabel": 0}
{"compound": "N[C@@H](Cc1ccc(O)c(O)c1)C(=O)O", "answerLabel": 0}
{"compound": "COc1ccc(-c2ccnc(SCC(=O)NCCSCc3ccco3)n2)cc1", "answerLabel": 0}
{"compound": "O=C(O)CCCCC1CCSS1 (stereo unspecified)", "answerLabel": 0}
{"compound": "Cc1c(Cl)cccc1NC(=S)Nc1ccc(Cl)cc1C(=O)c1ccccc1", "answerLabel": 0}
{"compound": "COc1ccccc1OCCNCC(O)COc1cccc2[nH]c3ccccc3c12 (stereo unspecified)", "answerLabel": 0}
{"compound": "CC(Cc1ccc(O)c(O)c1)C(C)Cc1ccc(O)c(O)c1 (stereo unspecified)", "answerLabel": 1}
{"compound": "COc1cccc(C2C3=C(CC(C)(C)CC3=O)OC3=C2C(=O)CC(C)(C)C3)c1O", "answerLabel": 0}
